System Tested: Tyrosine-protein kinase JAK3 (Homo sapiens)
Sequence (P52333 whole entry): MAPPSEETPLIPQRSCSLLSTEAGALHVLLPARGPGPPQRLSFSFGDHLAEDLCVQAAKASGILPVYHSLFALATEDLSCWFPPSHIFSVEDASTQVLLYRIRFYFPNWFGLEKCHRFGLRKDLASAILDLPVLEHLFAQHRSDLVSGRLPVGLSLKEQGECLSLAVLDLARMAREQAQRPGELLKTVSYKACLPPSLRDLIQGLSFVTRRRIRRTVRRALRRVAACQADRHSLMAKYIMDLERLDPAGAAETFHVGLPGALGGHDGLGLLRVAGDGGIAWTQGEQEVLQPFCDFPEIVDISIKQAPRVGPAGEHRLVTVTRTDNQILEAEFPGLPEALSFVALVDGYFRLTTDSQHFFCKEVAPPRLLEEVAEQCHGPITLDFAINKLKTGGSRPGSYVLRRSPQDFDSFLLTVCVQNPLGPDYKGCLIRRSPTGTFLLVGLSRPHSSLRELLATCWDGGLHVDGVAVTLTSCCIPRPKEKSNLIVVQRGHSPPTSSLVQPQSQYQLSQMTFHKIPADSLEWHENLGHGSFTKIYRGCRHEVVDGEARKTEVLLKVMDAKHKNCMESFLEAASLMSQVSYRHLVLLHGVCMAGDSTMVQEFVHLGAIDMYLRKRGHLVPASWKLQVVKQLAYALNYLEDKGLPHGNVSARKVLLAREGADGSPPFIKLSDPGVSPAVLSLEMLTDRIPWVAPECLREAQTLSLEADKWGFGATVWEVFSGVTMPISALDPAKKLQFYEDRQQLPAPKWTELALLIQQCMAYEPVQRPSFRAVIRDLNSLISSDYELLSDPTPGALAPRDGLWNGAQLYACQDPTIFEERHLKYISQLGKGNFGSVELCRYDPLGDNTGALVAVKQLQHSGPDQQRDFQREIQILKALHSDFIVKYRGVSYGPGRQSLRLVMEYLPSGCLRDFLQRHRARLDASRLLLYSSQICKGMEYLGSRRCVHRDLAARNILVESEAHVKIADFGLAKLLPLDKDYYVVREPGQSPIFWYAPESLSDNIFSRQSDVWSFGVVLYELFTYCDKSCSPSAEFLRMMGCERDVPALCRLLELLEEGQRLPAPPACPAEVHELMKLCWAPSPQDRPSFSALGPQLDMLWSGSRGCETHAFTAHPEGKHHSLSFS
Test Details: Inhibition of recombinant human JAK3 using GGEEEEYFELVKKKK as substrate incubated for 40 mins in presence of Mg/ATP mixture by [gamma p33]-ATP based scintillation counting method
Assignment: determine reported IC50 for the given compounds.

Which IC50 reading was recorded for the compound "N#CC1(C(=O)N2CC3(CCC(c4cccc5nc(NC(=O)C6CC6)nn45)CC3)C2)CC1" ?
> 10 µM

Which IC50 reading was recorded for the compound "O=C(Nc1nc2cccc([C@H]3CC[C@@H](NC(=O)[C@H]4CC4(F)F)CC3)n2n1)C1CC1" ?
> 10 µM

Which IC50 reading was recorded for the compound "N#CCCN1CC2(CCC(c3cccc4nc(NC(=O)C5CC5)nn34)CC2)C1" ?
> 10 µM

###

Organism: Homo sapiens
Test Details: Selectivity index, ratio of IC50 for inhibition of recombinant human TYK2 to IC50 for inhibition of recombinant human JAK1
Assignment: determine reported Ratio IC50 for the given compounds.
Respond using a number only.

Which Ratio IC50 reading was recorded for the compound "O=C(Nc1nc2cccc([C@@H]3CCC4(CCN(C(=O)[C@@H]5CC5(F)F)CC4)C3)n2n1)C1CC1" ?
1.5

Which Ratio IC50 reading was recorded for the compound O=C(Nc1nc2cccc(C3CCC4(CC3)CCN(C(=O)CC(F)(F)F)C4)n2n1)C1CC1 (stereo unspecified) ?
11.6

Which Ratio IC50 reading was recorded for the compound O=C(Nc1nc2cccc(C3=CCC(NC(=O)C4CC4)CC3)n2n1)C1CC1 (stereo unspecified) ?
3.3

Which Ratio IC50 reading was recorded for the compound N#CCC(=O)N1CCC2(CCC(c3cccc4nc(NC(=O)C5CC5)nn34)CC2)C1 (stereo unspecified) ?
4.1

Which Ratio IC50 reading was recorded for the compound "O=C(Nc1nc2cccc(C3=CC[C@@H](NC(=O)[C@@H]4CC4(F)F)CC3)n2n1)C1CC1" ?
8.4

Which Ratio IC50 reading was recorded for the compound "O=C(Nc1nc2cccc(C3=CC[C@H](NC(=O)[C@@H]4CC4(F)F)CC3)n2n1)C1CC1" ?
6.5

Which Ratio IC50 reading was recorded for the compound O=C(Nc1nc2cccc(C3CCC(NC(=O)C4CC4(F)F)CC3)n2n1)C1CC1 (stereo unspecified) ?
3.3

Which Ratio IC50 reading was recorded for the compound "O=C(Nc1nc2cccc([C@H]3CC[C@@H](NC(=O)[C@H]4CC4(F)F)CC3)n2n1)C1CC1" ?
9.5

Which Ratio IC50 reading was recorded for the compound "O=C(Nc1nc2cccc([C@H]3CC[C@H](NC(=O)[C@H]4CC4(F)F)CC3)n2n1)C1CC1" ?
16.9

Which Ratio IC50 reading was recorded for the compound "O=C(Nc1nc2cccc(C3=CC[C@H](NC(=O)[C@H]4CC4(F)F)CC3)n2n1)C1CC1" ?
4.2

Which Ratio IC50 reading was recorded for the compound "O=C(Nc1nc2cccc([C@H]3CC[C@H](NC(=O)[C@@H]4CC4(F)F)CC3)n2n1)C1CC1" ?
9.6

###

Test Details: Microsomal stability in rat liver microsomes assessed as intrinsic clearance at 1 uM incubated for 60 mins in presence of NADPH regenerating system by LC-MS/MS analysis
Type: ADME, Microsome
Stated Conditions: read-out: CLH
Metric: microsomal CLint at 1 µM

Which microsomal CLint at 1 µM reading was recorded for the compound "O=C(Nc1nc2cccc(C3CCC4(CC3)CCN(C(=O)[C@@H]3CC3(F)F)CC4)n2n1)C1CC1" ?
< 9.6 µL/min/mg

Which microsomal CLint at 1 µM reading was recorded for the compound O=C(Nc1nc2cccc(C3CCC4(CC3)CCN(C(=O)[C@@H]3CC3(F)F)C4)n2n1)C1CC1 (some centres undefined) ?
15.7 µL/min/mg

Which microsomal CLint at 1 µM reading was recorded for the compound O=C(Nc1nc2cccc(C3CCC(NC(=O)C4(F)CC4)CC3)n2n1)C1CC1 (centres undefined) ?
< 9.6 µL/min/mg

Which microsomal CLint at 1 µM reading was recorded for the compound "O=C(Nc1nc2cccc(C3CCC4(CC3)CN(C(=O)[C@@H]3CC3(F)F)C4)n2n1)C1CC1" ?
< 9.6 µL/min/mg

###

System Tested: UniProt P29597
Sequence (P29597 whole entry): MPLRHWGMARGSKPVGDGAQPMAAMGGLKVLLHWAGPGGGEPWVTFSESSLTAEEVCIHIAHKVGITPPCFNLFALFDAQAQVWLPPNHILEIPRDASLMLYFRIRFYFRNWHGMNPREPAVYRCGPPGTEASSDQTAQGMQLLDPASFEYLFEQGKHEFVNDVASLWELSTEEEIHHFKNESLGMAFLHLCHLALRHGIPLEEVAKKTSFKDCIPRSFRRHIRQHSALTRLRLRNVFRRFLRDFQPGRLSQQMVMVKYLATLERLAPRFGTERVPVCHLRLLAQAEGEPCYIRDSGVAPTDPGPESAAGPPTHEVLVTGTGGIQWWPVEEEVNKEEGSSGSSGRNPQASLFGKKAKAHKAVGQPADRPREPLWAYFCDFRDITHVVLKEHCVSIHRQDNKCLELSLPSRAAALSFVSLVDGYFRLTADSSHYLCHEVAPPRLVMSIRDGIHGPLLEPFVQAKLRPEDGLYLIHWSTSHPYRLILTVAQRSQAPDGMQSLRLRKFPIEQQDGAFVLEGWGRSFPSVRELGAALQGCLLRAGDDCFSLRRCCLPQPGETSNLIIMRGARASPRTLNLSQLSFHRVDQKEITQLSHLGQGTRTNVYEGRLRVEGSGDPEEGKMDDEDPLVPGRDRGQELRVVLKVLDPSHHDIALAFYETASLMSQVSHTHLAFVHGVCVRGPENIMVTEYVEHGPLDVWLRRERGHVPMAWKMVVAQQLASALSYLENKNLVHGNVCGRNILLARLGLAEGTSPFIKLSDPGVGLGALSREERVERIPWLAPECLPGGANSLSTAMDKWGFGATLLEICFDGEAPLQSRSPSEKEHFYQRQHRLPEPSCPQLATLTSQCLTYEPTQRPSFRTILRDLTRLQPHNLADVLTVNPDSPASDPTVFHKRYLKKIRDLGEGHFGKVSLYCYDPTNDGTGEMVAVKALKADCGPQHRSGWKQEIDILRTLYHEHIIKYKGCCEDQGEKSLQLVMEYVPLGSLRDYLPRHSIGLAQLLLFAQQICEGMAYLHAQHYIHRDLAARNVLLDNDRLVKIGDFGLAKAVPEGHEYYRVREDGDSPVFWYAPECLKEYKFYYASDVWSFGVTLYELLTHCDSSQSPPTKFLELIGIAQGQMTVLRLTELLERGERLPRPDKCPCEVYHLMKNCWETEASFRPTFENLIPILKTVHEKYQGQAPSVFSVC
Test Details: Inhibition of recombinant human TYK2 using GGMEDIYFEFMGGKKK as substrate incubated for 40 mins in presence of Mg/ATP mixture by [gamma p33]-ATP based scintillation counting method
Metric: pIC50
Entry type: numeric. Quantity: pIC50, the -log10 of concentration in molar units.

pIC50 of "N#CCN1CC2(CCC(c3cccc4nc(NC(=O)C5CC5)nn34)CC2)C1" on UniProt P29597?
6.24

pIC50 of N#CCC(=O)N1CCC2(CCC(c3cccc4nc(NC(=O)C5CC5)nn34)CC2)C1 (stereo not given) on UniProt P29597?
6.56

pIC50 of O=C(Nc1nc2cccc(C3CCC4(CC3)CCN(C(=O)[C@H]3CC3(F)F)C4)n2n1)C1CC1 (stereo not given in full) on UniProt P29597?
6.16

pIC50 of "O=C(Nc1nc2cccc([C@H]3CC[C@@H](NC(=O)[C@@H]4CC4(F)F)CC3)n2n1)C1CC1" on UniProt P29597?
7.62

pIC50 of "CC(C)(C#N)C(=O)N1CC2(CCC(c3cccc4nc(NC(=O)C5CC5)nn34)CC2)C1" on UniProt P29597?
6.97

// data source = ChEMBL document CHEMBL5150077
